Data origin, for the record: the supplement of paper PMC6555819

- System: FXR:RXRa (NR concentration 270 nM, RXRa partner concentration 90 nM)
- ASSAY_INFO: PBM binding z-score (relative to random genomic background probes); higher = stronger binding; sequences stand for … in GC…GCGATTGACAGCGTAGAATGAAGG
MEASURED_ATTRIBUTE: PBM binding z-score
// return just the number, without any unit appended

TCGTATAGGTAAAGGTGAAAGTCGAACGATATGA; 1.05
TCATATTGGTAAAAGGTGAAAGTCGGTGTGGTAA; 1.65

Then there is this sequence:
Look up and state reported PBM binding z-score for ATCGAAAGGTCGTGAGCTGAGTATACAGAAAGGC
4.79

---

- System: PPARg:RXRa 30nM:10nM, anti-RXR (NR concentration 30 nM, RXRa partner concentration 10 nM)
- ASSAY_INFO: PBM binding z-score (relative to random genomic background probes); higher = stronger binding; sequences stand for … in GC…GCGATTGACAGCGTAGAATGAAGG
Short version: PBM binding z-score at least 0.6 is t, less is f.

CGAACGAGGGCACGAGTTGATAGCAAATGCCGAT; f
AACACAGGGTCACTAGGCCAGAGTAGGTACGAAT; t
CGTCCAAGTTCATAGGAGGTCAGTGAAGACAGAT; t
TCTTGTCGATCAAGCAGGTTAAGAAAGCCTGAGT; t
AATACAGGGTCATCGTAGGCCAGAGTGCGCACAG; t
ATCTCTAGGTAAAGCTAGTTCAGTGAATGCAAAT; f
ACAGACAGGGGATGAAGGTAACTCAGGCTATCAT; f
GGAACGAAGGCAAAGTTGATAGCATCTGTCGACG; t

Tell me whether PBM binding z-score is at least 0.6 here: GATACAGGGTTAGCTAGAGGCCAGAGTATGGAAA
f

Decide: is the reported value of PBM binding z-score for CCTACTGGGCCATTCAGATGTCATTGATCATATG equal to or greater than 0.6?
f

Identify whether the reported PBM binding z-score of the following sequence is 0.6 or greater: CAAACTAGGTCACGAAAGGTGAAAGTCGAATGAC
t

Form field: PBM binding z-score at least 0.6? Entry: GCGACTGGGGCAAAGCAGGTTACCATGAGGTTGG
f

Check the entry ATCTCTAGGTAACCAAGTTCATTGAATGCCGAAC : does PBM binding z-score equal or exceed 0.6?
f

---

- Tested on: RARg:RXRa (NR concentration 270 nM, RXRa partner concentration 90 nM)
- ASSAY_INFO: PBM binding z-score (relative to random genomic background probes); higher = stronger binding; sequences stand for … in GC…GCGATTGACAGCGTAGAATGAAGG
Please use Criterion met whenever PBM binding z-score is not below 0.8, and Criterion not met whenever it is.

Recorded results for 10 sequences are shown here.
TCTTGTATATCAAGCAGGTTAAGAAAGCCTGAGT; Criterion not met
TCTAGCAGGCCAGCGGGTCACTCAAGAGGTACGG; Criterion met
TCTAGTTGGTCAAAGGTCACAGACTCGAAATGCG; Criterion met
CGTCCAAGGTCAATGCCAGGTCAGTGAAAGCATT; Criterion met
GCGCCTGGGGCATCAGCAGGTTACCATAACTTAA; Criterion not met
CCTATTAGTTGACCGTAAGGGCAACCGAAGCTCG; Criterion met
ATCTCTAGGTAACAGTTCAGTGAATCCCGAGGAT; Criterion not met
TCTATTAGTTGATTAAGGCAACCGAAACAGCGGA; Criterion not met
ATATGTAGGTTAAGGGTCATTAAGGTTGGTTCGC; Criterion met
GGAACGAGGGCAATGTTGATAGCATCTGTCGACG; Criterion met

Reported PBM binding z-score reaches at least 0.8 for GCGTATAGGTAATACAAGGTGAAAGTCCGATTGT ?
Criterion not met

Test whether the sequence CCTATAAGTTGACCATAAGGGCAACCGAAGCTCG records PBM binding z-score of 0.8 or higher.
Criterion met
